System: NCI-H929 complex spheroids, viability % test/control
Experiment: Anticancer human tumor NCI-H929 cell line growth inhibition [RAS]; active means viability on the fitted dose curve at most 10% of control; inactive means the rest;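 further: compound exposure lasted seven days before viability was read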
Conditions: second compound 0.03 µM; first compound 0.0316 µM
Text: RAS pathway inhibitors in Combinations in Complex Spheroids A high-throughput screen of multi-cell type tumor spheroids was designed to identify active combinations of RAS pathway inhibitors and targeted small molecules. Complex spheroids include a stromal component modeled by human endothelial cells (HUVEC) and fibroblasts modeled by human mesenchymal stem cells (MSCs). […] Compounds. […] If the clinical Cmax for an agent had not been determined, the highest concentration tested was 10 microM. […]
Outcome codes: Y (active), N (inactive)

- O=C(c1ccc(F)c(F)c1Nc1ccc(I)cc1F)N1CC(O)([C@@H]2CCCCN2)C1 + CCn1c(-c2cc(N3CCN(C)CC3)cnc2C(C)OC)c2c3cc(ccc31)-c1csc(n1)CC(NC(=O)C1CC1C)C(=O)N1CCCC(N1)C(=O)OCC(C)(C)C2: Y
- Nc1ccn(C2OC(CO)C(O)C2(F)F)c(=O)n1 (centres undefined) + CCn1c(-c2cccnc2C(C)OC)c2c3cc(ccc31)N1CCOC(CC(NC(=O)C(C(C)C)N(C)C(=O)C3(F)CCN(C(=O)C#CC(C)(C)N(C)C)CC3)C(=O)N3CCCC(N3)C(=O)OCC(C)(C)C2)C1: Y
- C=CC(=O)N1CCN(c2nc(OCC3CCCN3C)nc3c(F)c(-c4nc(N)cc(C)c4C(F)(F)F)c(Cl)cc23)C(C)C1 (centres undefined) + CCn1c(-c2cc(N3CCN(C)CC3)cnc2C(C)OC)c2c3cc(ccc31)-c1csc(n1)CC(NC(=O)C1CC1C)C(=O)N1CCCC(N1)C(=O)OCC(C)(C)C2: N
- CC(C)n1nc(-c2ccc3oc(N)nc3c2)c2c(N)ncnc21 + CCn1c(-c2cccnc2C(C)OC)c2c3cc(ccc31)N1CCOC(CC(NC(=O)C(C(C)C)N(C)C(=O)C3(F)CCN(C(=O)C#CC(C)(C)N(C)C)CC3)C(=O)N3CCCC(N3)C(=O)OCC(C)(C)C2)C1: N
